target desc: purified nitrilase (Comamonas testosteroni)
Construct: about 280 kDa oligomer of about 38 kDa subunits
Sequence (Q59329 entry or part of it): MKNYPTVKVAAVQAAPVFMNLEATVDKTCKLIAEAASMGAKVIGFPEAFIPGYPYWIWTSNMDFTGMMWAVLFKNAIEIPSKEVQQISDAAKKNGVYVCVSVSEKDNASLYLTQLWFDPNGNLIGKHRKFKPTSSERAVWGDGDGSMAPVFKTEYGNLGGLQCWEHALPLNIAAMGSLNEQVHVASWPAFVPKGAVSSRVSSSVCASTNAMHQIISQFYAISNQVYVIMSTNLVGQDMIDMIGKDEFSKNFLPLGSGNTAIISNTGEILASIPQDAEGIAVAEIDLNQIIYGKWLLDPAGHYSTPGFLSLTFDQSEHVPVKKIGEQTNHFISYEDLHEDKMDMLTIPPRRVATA
run description: Relative activity of the purified nitrilase on various nitriles
Type: biochemical, Comamonas testosteroni sp.
condition context: acetate buffer 10 mM, pH 4; substrate 10 mM; 25° C.
Classify by measured RELATIVE ACTIVITY: Fulfilled if it is equal to or exceeds 20%, Not fulfilled if it is smaller.

Example cases with answers are listed next.
1) N#Cc1ccccc1 [Benzonitrile, benzonitrile]; Not fulfilled
2) CCC#N [Propionitrile, propionitrile]; Not fulfilled
3) N#CCCCCC#N [Adiponitrile, adiponitrile]; Fulfilled

Q) Given N#CCCCCC(N)=O [5-Cyanovaleramide, 5-cyanovaleramide] , state whether its RELATIVE ACTIVITY is at least 20%.
A) Fulfilled

Q) Please indicate if the recorded RELATIVE ACTIVITY for C=CC#N [Acrylonitrile, acrylonitrile] meets or exceeds 20%.
A) Fulfilled
